# ASSAY_TEXT: isobaric coefficient of expansion
# PROTOCOL_CONDITIONS: 288.15 K; 35000 kPa; Liquid; Micro DSCII
OBSERVATION_TYPE: isobaric coefficient of expansion

isobaric coefficient of expansion lookup needed for CCCCn1cc[n+](C)c1.[F][Sb-]([F])([F])([F])([F])[F] [1-butyl-3-methylimidazolium hexafluoroantimonate] , thanks.
0.000589 1/K

isobaric coefficient of expansion lookup needed for CCCC[n+]1ccn(C)c1.O=S(=O)([N-]S(=O)(=O)C(F)(F)F)C(F)(F)F , thanks.
0.000615 1/K

isobaric coefficient of expansion lookup needed for CCCCn1cc[n+](C)c1.O=S(=O)([O-])C(F)(F)F [1-butyl-3-methylimidazolium trifluoromethanesulfonate] , thanks.
0.000574 1/K

isobaric coefficient of expansion lookup needed for CCCCn1cc[n+](C)c1.COS(=O)(=O)[O-] [1-butyl-3-methylimidazolium methyl sulfate] , thanks.
0.000527 1/K

isobaric coefficient of expansion lookup needed for CCCCn1cc[n+](C)c1.F[B-](F)(F)F [1-butyl-3-methylimidazolium tetrafluoroborate] , thanks.
0.000566 1/K

Every entry's value here was drawn from the NIST ThermoML archive (doi:10.1021/je900407u).
